Reported inhibition at 1000 µg/mL values follow for various molecules
Target: cholera toxin (Vibrio cholerae serotype O1, UniProt P01556)
Assay: biochemical
Conditions: read-out: inhibition of binding of cholera toxin to ganglioside GD1b

{"MOLECULE": "O=C(O)CCNC1CCCCC(S[C@@H]2O[C@H](CO)[C@H](O)[C@H](O)[C@H]2O)C1 (stereo partly shown) [Example F5]", "inhibition at 1000 µg/mL": "< 20%"}
{"MOLECULE": "CC(CC(S[C@@H]1O[C@H](CO)[C@H](O)[C@H](O)[C@H]1O)c1ccccc1)N[C@@H](Cc1c[nH]c2ccccc12)C(=O)O (stereo partly shown) [Example I3]", "inhibition at 1000 µg/mL": "≥ 20%"}
{"MOLECULE": "O=C(O)CNC1CCCCC(S[C@@H]2O[C@H](CO)[C@H](O)[C@H](O)[C@H]2O)C1 (stereo partly shown) [Example E5]", "inhibition at 1000 µg/mL": "< 20%"}
{"MOLECULE": "CC(=O)NC1CCCCC(S[C@@H]2O[C@H](CO)[C@H](O)[C@H](O)[C@H]2O)C1 (stereo partly shown) [Example C5]", "inhibition at 1000 µg/mL": "≥ 20%"}
{"MOLECULE": "CC1(C)CC(NCCC(=O)O)CC1S[C@@H]1O[C@H](CO)[C@H](O)[C@H](O)[C@H]1O (stereo partly shown) [Example F6]", "inhibition at 1000 µg/mL": "< 20%"}
{"MOLECULE": "N=C(N)NCCC[C@H](NC1CCCC(S[C@@H]2O[C@H](CO)[C@H](O)[C@H](O)[C@H]2O)C1)C(=O)O (stereo partly shown) [Example J10]", "inhibition at 1000 µg/mL": "< 20%"}
{"MOLECULE": "O=C(O)[C@H](Cc1c[nH]c2ccccc12)NC1CCCCC(S[C@@H]2O[C@H](CO)[C@H](O)[C@H](O)[C@H]2O)C1 (stereo partly shown) [Example I5]", "inhibition at 1000 µg/mL": "≥ 20%"}
